biological target: 5-hydroxytryptamine receptor 2A (Rattus norvegicus)
Sequence (P14842 whole entry): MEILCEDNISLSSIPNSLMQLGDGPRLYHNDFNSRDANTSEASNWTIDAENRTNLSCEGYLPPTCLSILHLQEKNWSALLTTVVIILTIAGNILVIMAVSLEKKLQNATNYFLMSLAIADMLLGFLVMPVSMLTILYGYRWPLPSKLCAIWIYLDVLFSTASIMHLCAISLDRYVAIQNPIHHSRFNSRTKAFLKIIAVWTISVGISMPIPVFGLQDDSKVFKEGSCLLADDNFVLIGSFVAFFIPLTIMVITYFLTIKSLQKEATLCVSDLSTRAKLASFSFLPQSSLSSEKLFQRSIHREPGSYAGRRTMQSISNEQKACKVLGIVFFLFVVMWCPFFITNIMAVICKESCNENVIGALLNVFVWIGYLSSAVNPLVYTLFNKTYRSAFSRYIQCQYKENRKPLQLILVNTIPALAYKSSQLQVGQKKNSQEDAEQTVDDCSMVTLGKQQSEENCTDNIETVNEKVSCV
value type: pKi
Numbers only, as −log10 of the molar value.

Below, 6 compounds whose answers are already recorded.
[[record]]
compound = "COc1ccc2[nH]cc(C3CCN(C)C3)c2c1 (stereo not drawn)"
result_value = 5.89

[[record]]
compound = "CN(C)CCc1c[nH]c2cccc(O)c12"
result_value = 6.41

[[record]]
compound = "CN1CCC[C@H]1Cc1c[nH]c2cc(O)ccc12"
result_value = 5.33

[[record]]
compound = "COc1ccc2[nH]cc(C[C@H]3CCCN3C)c2c1"
result_value = 6.40

[[record]]
compound = "CN1CCC(c2c[nH]c3cccc(O)c23)C1 (stereo not drawn)"
result_value = 6.36

[[record]]
compound = "COc1ccc2[nH]cc(CCN(C)C)c2c1"
result_value = 5.80


Report pKi, nothing else, for this compound: `CN1CCC[C@@H]1Cc1c[nH]c2cc(O)ccc12` 6.68

Origin of values: ChEMBL document CHEMBL1132441
